Data origin, for the record: PubChem BioAssay AID738

- ASSAY_PROCEDURE: growth inhibition of yeast control strain, primary screen, counter-screen for post-Golgi transport modulator project (AID 738)
- EXPERIMENTAL_CONTEXT: efflux-deficient yeast background strain, growth absorbance A615, 16 h; at 10 µM
The campaign covered roughly 98,000 compounds. About 4,900 (5%) were called active. Rule as the data show it: active = inhibition above about 30%; inactive = the rest. Shown is part of a subset that was picked to be rich in actives.
Classes used: active, inactive

COMPOUND	CLASS_NAME
O=C(CN1CCN(S(=O)(=O)c2ccc3ccccc3c2)CC1)NC(=O)NC1CCCCC1	inactive
CCNc1nc(N)nc(-c2cc(Cl)ccc2OC)n1	inactive
CC(C)(CCl)C(=O)Nc1ccc(Sc2ccc(F)cc2)cc1	active
CCOC(=O)c1[nH]c2ccc(OC)cc2c1NC(=O)CCN1CCN(Cc2ccccc2)CC1	inactive
COC(=O)c1[nH]c2ccccc2c1NC(=O)CN1CCCc2ccccc21	active
NC(=O)N1CCCC1C(=O)Nc1ccc(Cl)c(Cl)c1 (stereo unspecified)	inactive
